# targetOrTestSystem: T1, ROR1 extracellular domain Fc fusion:Fc heterodimer, monomer (human)
# T1 construct: Heterodimer of one ROR1 ECD-Fc chain and one Fc chain; also called ROR1 monomer; hROR1 monomeric ECD-Fc fusion protein; not shown: Fc part; Fc alone
# T1 sequence (Q01973 30-406, one chain of several): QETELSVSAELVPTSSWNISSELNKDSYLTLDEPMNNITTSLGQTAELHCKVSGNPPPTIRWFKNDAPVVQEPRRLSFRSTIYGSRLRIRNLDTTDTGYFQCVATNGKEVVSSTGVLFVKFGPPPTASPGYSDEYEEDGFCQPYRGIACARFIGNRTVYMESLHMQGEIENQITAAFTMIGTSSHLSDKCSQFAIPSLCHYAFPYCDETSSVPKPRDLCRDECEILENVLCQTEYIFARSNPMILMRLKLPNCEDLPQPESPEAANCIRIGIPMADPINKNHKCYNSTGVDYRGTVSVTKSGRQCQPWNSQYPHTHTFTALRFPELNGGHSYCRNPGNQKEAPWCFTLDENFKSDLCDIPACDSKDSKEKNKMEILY
# assaySummary: SPR, immobilised ROR1 monomer, antibody injected, 1:1 model
Please respond with reported log10 kon for every item in the list.
Values reflect log10 of reported kon (M⁻¹ s⁻¹).

Fill in: log10 kon of Antibody 601-37 (antibody, V domains shown) VH: EVQLVQSGAEVKKPGASVKVSCKASGYTFNNYGFSWVRQAPGQGLEWMGWISVYNGNTNYAQKLQGRVTMTTDTSTSTAYMELRSLRSDDTAVYYCARDYYSDSSGYWDDAFDIWGQGTMVTVSS VL: AIRMTQSPSSLSASVGDRVTITCQASQDISNYLNWYQQKPGKAPKLLIYAASSLQSGVPSRFSGSGSGTDFTLTISSLQPEDFATYYCQQSYSTPFTFGPGTKVDIK is ___
5.96

Item under review: Antibody 601-130 (antibody, V domains shown) VH: EVQLVETGGGLVKPGGSLRLSCEASGFSLSSYSMNWVRQAPGKGLEWVSSISSSSTHIYYADSLKGRFTISRDNAKNSLFLQMDNLRAEDTAVYYCARATIGFDYWGQGTLVTVSS VL: QSVLTQPPSVSGAPGQRVTISCTGSSSNIGAGYDVHWYQQLPGTAPKLLIYGNSNRPSGVPDRFSGSKSGTSASLAITGLQAEDEADYYCQSYDSSLSGYVFGTGTKLTVL . Reported log10 kon?
5.65

May I ask what log10 kon has been recorded for Antibody 601-119 (antibody, V domains shown) VH: QVQLVQSGGGLVKPGGSLRLSCAASGFTFGTYSMNWVRQAPGKGLEWVSSISSSSSYIYYADSVKGRFTISRDNAKNSLYLQMNSLRAEDTAVYYCARGLGGWTHDAFDIWGQGTTVTVSS VL: QSALTQPASVSASPGQSITISCTGTSSDVGGYNYVTWYQQHPGKAPKLMIYDVSKRPSGVLDRFSGSKSGNTASLTISGLQAEDEADYFCSSYTSSSTLVFGGGTKLTVLG ?
5.36

Reported log10 kon for Antibody 601-87 (antibody, V domains shown) VH: QVQLQESGPGLVKSSETLSLTCTVSGGSMNNYYWSWIRQPAGKGLEWMGRIYSSGSTNYNPALKSRVTMSVDTSKNQFSLNLSSVTAADTAIYYCARASWSGTYWALFDYWGQGTLVTVSS VL: ETTLTQSPAFMSATPGDKVNISCKASQDIDDDLNWYQQKPGEAPILIIQEATTLVPGIPPRFSGSGFGTDFTLTINSMQSEDVAYYFCLQHDNFPPTFGQGTKVEIK : what is it?
5.78

Would you mind telling me what log10 kon value was observed for Antibody 601-65 (antibody, V domains shown) VH: QVQLQQSGPGLVKPSQTLSLTCAISGDSVSSNSATWNWIRQSPSRGLEWLGRTYYRSKWYNDYAVSVKSRIIINPDTSKNQFSLQLNSVTPEDTAVYYCARGVRAFDIWGQGTTVTVSS VL: QSVLTQPPSVSGTPGQRVTIFCSGGSNNIGRSSVYWYRQAAGTAPKLLIYKTDQRPSGVPDRFAASKSGASASLAISGLRSEDEADYHCATWDDSLSAVVFGGGTKLTVL ?
6.23

Which measured log10 kon value corresponds to Antibody 601-66 (antibody, V domains shown) VH: QVQLVQSGAEVKEPGASVKVSCKASGYTFRNSGITWVRQAPGQGLEWMGWINPNSGGAMYVDNFQGRATMTRDTSINTAYMELRSLSSDDTAVYYCARGMADLIDVFDIWGQGTLVTVSS VL: TQPALTQPASVSGSPGQSITISCTGTSSDFGDYDYVSWYQQHPGKAPKLMIYDVSDRPSGVSNRFSGSKSGNTASLTISGLQAEDEADYFCSSFTTSSTLVFGGGTKLTVL ?
6.40

Reported log10 kon for Antibody 601-9 (antibody, V domains shown) VH: QLQLQESGPGVVKPSGTLSLTCTVSGGSISRSDGYWGWVRQPPGKGLEWIGSIYDTGTTYYSPSLKSRLIISVDTSKNQFSLTLNSVTAADTAVYYCASMGGLRSSSSDAFHTWGPGTMVTVSS VL: QSVLTQPPSVSVAPGETARITCGGTNIGSESVHWYQQRPGQAPVLVVYDDTDRPSGIPERFSGSNSGNTATLTISRVEAGDGADYYCQVWDSVSDRYVFGTGTKVTVL : what is it?
5.80

Param item = Antibody 601-14 (antibody, V domains shown) VH: QVQLVQSGAEVKKPGESLKISCKDSGYSFTNYWLGWVRQMPGKGLEWMGIIYPGDSDTRYSPSFRGQVTISADKSISTAYLQWSSLKASDTAMYYCARLNLATHTAFDIWGQGTTVTVSS VL: QSVLTQPASVSGSPGQSITISCTGTSSDVGGYNYVSWYQQHPGKAPKLMIYDVSNRPSGVSNRFSGSKSGNTASLTISGLQAEDEADYYCSSYTSSSTLWVFGGGTKLTVLG ; retrieve measured log10 kon.
6.51

Consider the binder shown here: Antibody 601-50 (antibody, V domains shown) VH: QVQLQQSGAEVKKPGASVKVSCKASGYTFSRYYIHWVRRAPGQGLEWMGLINPGGGSTNYAQKFQGRVTMTRDTSTNTVYLELSSLRSDDTAVYYCARDYGTIDARRFDFWGQGTLVTVSS VL: QSALTQPPSASGTPGQRVTISCPGSSSNIGSNYVYWYQQLPGTAPKLLIYRNNQRPSGVPDRFSGSKSGTSATLGITGLQTGDEADYYCGTWDSSLSAYVFGTGTKVTVL What is its recorded log10 kon?
6.04
